Biological target: human FOXP3 tagged with 6 histidines at the C terminus (human) (UniProt Q9BZS1)
Sequence (Q9BZS1 other isoform, or with tags, fused parts or gaps): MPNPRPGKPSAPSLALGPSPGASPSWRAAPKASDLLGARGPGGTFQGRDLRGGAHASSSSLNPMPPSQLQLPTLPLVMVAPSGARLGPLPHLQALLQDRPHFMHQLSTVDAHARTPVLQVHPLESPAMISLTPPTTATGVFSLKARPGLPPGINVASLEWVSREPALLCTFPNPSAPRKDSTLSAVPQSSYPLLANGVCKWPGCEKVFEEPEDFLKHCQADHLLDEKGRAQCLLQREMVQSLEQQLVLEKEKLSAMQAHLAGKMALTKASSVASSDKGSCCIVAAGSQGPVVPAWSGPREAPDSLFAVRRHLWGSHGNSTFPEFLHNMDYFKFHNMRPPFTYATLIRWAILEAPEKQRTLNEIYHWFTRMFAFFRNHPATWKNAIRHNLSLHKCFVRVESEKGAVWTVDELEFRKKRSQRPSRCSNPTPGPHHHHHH
Assay: AlphaScreen competition, His-tagged FOXP3 (400 nM) / GST-tagged FOXP3 (40 nM, competitor); peptide at 100 µM
Listed here are binders together with their documented Dimerization inhibition % inhibition.
Could you give the number and then its unit, please?

Worked set:
- RAFQSFRKMWPFFAM [peptide of SEQ ID NO: 5]: 74.3%
- RDFQSFRKMWPFFAM [p60 (peptide of SEQ ID NO: 1)]: 59.7%

Challenge: Bench note: what Dimerization inhibition % inhibition did RDFQAFRKMWPFFAM [peptide of SEQ ID NO: 19] show?
Response given: 89%

Challenge: Bench note: what Dimerization inhibition % inhibition did RDFQSFRKMWAFFAM [peptide of SEQ ID NO: 30] show?
Response given: 81.3%
